The following compounds are listed with their measured EC50 values.
# EXPERIMENTAL TARGET: human α7 nAChR stably expressed in a HEK cell line (with human RIC-3) (Homo sapiens)
# Construct: PrecisION hnAChR α7/RIC-3 (product name; no catalogue number given)
# ASSAY NAME: Automated patch-clamp electrophysiology functional assay (Assay A), IonFlux HT, whole-cell population patch
# Type: cell-based
# CONDITION INFO: automated patch-clamp electrophysiology functional assay (Assay A); potency class by EC50; read-out: α7 nAChR Potency
OBSERVATION TYPE: EC50

[
  {
    "COMPOUND": "Cc1cccc(F)c1-c1noc([C@@H]2C[C@H]2c2ccc(S(N)(=O)=O)cc2)n1",
    "EXPERIMENTAL TARGET": "human α7 nAChR stably expressed in a HEK cell line (with human RIC-3) (Homo sapiens)",
    "OBSERVATION TYPE": "EC50",
    "TEST RESULT": "100 to 500 nM"
  },
  {
    "COMPOUND": "CC1(C)[C@H](c2ccc(S(N)(=O)=O)cc2)[C@H]1c1nc(-c2ccc(F)cc2C(F)(F)F)no1",
    "EXPERIMENTAL TARGET": "human α7 nAChR stably expressed in a HEK cell line (with human RIC-3) (Homo sapiens)",
    "OBSERVATION TYPE": "EC50",
    "TEST RESULT": "500 to 5000 nM"
  },
  {
    "COMPOUND": "NS(=O)(=O)c1ccc([C@@H]2C[C@H]2c2ncc(C3CCCC3)s2)cc1",
    "EXPERIMENTAL TARGET": "human α7 nAChR stably expressed in a HEK cell line (with human RIC-3) (Homo sapiens)",
    "OBSERVATION TYPE": "EC50",
    "TEST RESULT": "100 to 500 nM"
  },
  {
    "COMPOUND": "Cc1cc(S(N)(=O)=O)ccc1[C@H]1C(c2nc(-c3ccccc3)no2)C1(C)C (single isomer, unassigned; enantiomer a)",
    "EXPERIMENTAL TARGET": "human α7 nAChR stably expressed in a HEK cell line (with human RIC-3) (Homo sapiens)",
    "OBSERVATION TYPE": "EC50",
    "TEST RESULT": "500 to 5000 nM"
  },
  {
    "COMPOUND": "CC1(c2nc(-c3ccc(F)cc3F)no2)CC1c1ccc(S(N)(=O)=O)cc1 (centres unmarked)",
    "EXPERIMENTAL TARGET": "human α7 nAChR stably expressed in a HEK cell line (with human RIC-3) (Homo sapiens)",
    "OBSERVATION TYPE": "EC50",
    "TEST RESULT": "5000 to 50000 nM"
  },
  {
    "COMPOUND": "NS(=O)(=O)c1ccc(C2C(c3nc(-c4ccccc4)no3)C2(Cl)Cl)cc1 (racemic)",
    "EXPERIMENTAL TARGET": "human α7 nAChR stably expressed in a HEK cell line (with human RIC-3) (Homo sapiens)",
    "OBSERVATION TYPE": "EC50",
    "TEST RESULT": "100 to 500 nM"
  },
  {
    "COMPOUND": "CC1(c2ccc(S(N)(=O)=O)cc2)CC1c1nc(-c2ccc(F)cc2F)no1 (centres unmarked)",
    "EXPERIMENTAL TARGET": "human α7 nAChR stably expressed in a HEK cell line (with human RIC-3) (Homo sapiens)",
    "OBSERVATION TYPE": "EC50",
    "TEST RESULT": "500 to 5000 nM"
  },
  {
    "COMPOUND": "CC1(C)[C@H](c2ccc(S(N)(=O)=O)cc2)[C@H]1c1nc(C2CC2)co1",
    "EXPERIMENTAL TARGET": "human α7 nAChR stably expressed in a HEK cell line (with human RIC-3) (Homo sapiens)",
    "OBSERVATION TYPE": "EC50",
    "TEST RESULT": "500 to 5000 nM"
  }
]

###

# EXPERIMENTAL TARGET: human α7 nAChR stably expressed in a HEK cell line (with human RIC-3) (Homo sapiens, UniProt P36544)
# Construct: PrecisION hnAChR α7/RIC-3 (product name; no catalogue number given)
# Sequence (P36544 23-502): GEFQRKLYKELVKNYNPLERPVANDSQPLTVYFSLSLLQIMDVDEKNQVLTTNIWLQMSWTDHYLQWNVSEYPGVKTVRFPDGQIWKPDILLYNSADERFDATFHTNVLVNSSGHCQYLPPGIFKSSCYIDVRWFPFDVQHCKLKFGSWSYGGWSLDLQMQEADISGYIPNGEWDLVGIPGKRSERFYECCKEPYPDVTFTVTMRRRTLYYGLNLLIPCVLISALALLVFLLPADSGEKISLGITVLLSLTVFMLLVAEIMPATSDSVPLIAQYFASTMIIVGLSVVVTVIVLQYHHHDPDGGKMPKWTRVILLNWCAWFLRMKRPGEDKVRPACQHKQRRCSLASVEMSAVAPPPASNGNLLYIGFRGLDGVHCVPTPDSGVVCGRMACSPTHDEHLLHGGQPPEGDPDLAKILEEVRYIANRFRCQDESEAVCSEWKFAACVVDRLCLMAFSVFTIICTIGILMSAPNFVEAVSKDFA
# ASSAY NAME: Automated patch-clamp electrophysiology functional assay (Assay A), IonFlux HT, whole-cell population patch
# Format: cell-based
# CONDITION INFO: automated patch-clamp electrophysiology functional assay (Assay A); potency class by EC50; read-out: α7 nAChR Potency
pEC50: −log10 of the molar value.

[
  {
    "MOLECULE": "CC1(C)[C@H](c2ccc(S(N)(=O)=O)cc2)[C@H]1c1nnc(C2CCCCC2)s1",
    "pEC50": "5.30 to 6.30"
  },
  {
    "MOLECULE": "CC1(C)[C@@H](c2ccc(S(N)(=O)=O)cc2)[C@@H]1c1nc(-c2cc(F)ccc2F)co1",
    "pEC50": "5.30 to 6.30"
  },
  {
    "MOLECULE": "CC1(C)[C@@H](c2ccc(S(N)(=O)=O)cc2)[C@@H]1c1nc(-c2cccc(F)c2)cs1",
    "pEC50": "5.30 to 6.30"
  },
  {
    "MOLECULE": "CC(Oc1cccc(Cl)c1)c1nc(C2C(c3ccc(S(N)(=O)=O)cc3)C2(C)C)no1 (stereo not shown)",
    "pEC50": "≥ 7.00"
  },
  {
    "MOLECULE": "NS(=O)(=O)c1ccc(C2C(c3cnc(-c4ccccc4)o3)C2(F)F)cc1 (racemic)",
    "pEC50": "5.30 to 6.30"
  },
  {
    "MOLECULE": "Cc1cc(C2C(c3nc(-c4ccccc4)no3)C2(C)C)ccc1S(N)(=O)=O (single isomer, unassigned)",
    "pEC50": "4.30 to 5.30"
  },
  {
    "MOLECULE": "CC(C)c1csc([C@H]2[C@H](c3ccc(S(N)(=O)=O)cc3)C2(C)C)n1",
    "pEC50": "5.30 to 6.30"
  }
]

Values were extracted from patent US20190337910A1.
